Hey, just so you know, these numbers are from ChEMBL document CHEMBL1961873.

# inhibition values compiled below
- System under test: Ribosomal protein S6 kinase alpha-1 (Homo sapiens) (UniProt Q15418);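 note: mean inhibition of RSK1, reported in the GSK PKIS screen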
- Sequence (Q15418 whole entry): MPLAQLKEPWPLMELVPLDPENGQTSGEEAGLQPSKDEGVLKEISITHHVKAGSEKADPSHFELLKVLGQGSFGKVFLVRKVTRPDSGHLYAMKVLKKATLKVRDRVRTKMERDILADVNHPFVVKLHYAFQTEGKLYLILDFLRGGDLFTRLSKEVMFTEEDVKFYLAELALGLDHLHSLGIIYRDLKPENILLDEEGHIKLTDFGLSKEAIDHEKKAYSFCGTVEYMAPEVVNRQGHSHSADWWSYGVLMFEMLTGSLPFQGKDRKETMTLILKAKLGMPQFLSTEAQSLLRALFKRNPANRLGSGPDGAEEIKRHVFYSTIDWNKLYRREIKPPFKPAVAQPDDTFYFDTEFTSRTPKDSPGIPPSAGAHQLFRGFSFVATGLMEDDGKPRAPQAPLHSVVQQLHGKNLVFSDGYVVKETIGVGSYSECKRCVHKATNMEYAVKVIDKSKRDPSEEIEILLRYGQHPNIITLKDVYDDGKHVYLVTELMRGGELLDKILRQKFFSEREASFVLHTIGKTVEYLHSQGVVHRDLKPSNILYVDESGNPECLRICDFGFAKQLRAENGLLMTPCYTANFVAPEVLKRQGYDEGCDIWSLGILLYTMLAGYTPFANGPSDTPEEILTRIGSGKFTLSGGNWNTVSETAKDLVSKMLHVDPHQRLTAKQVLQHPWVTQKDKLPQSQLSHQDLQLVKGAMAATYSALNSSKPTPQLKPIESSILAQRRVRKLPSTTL
- Condition summary: at 1 µM

Compound	Units text	inhibition
COC(=O)c1cncc(/C=C/c2c(C)cc(O)cc2C)c1	%	4.95
Cc1ccc2c(-c3ccnc(Nc4ccc5c(c4)OCCO5)n3)c(-c3ccc(C(F)(F)F)cc3)nn2n1	%	0.79
Nc1nccc(-c2c(-c3ccc(F)cc3)nn3cc(C(F)(F)F)ccc23)n1	%	0.53
Cc1ccc(NC(=O)CC2CC2)cc1-c1ccc(C(=O)NCC2CC2)cc1	%	2.35
C[C@@H](Oc1cc(-n2cnc3ccc(OC[C@@H](O)CO)cc32)sc1C(N)=O)c1ccccc1Cl	%	3.32
NS(=O)(=O)c1ccc(-c2cc3ccncc3cc2OCc2ccccc2)cc1	%	3.06
[O-][S+]1CCN(Cc2ccc(-c3ccc4ncnc(Nc5ccc(OCc6ccccc6)c(Cl)c5)c4c3)o2)CC1	%	0.75
Oc1cccc(-c2nc(-c3ccccc3)[nH]c2-c2ccncc2)c1	%	3.62
c1ccc(Nc2ncc(-c3ccccc3)o2)cc1	%	2.37
CCS(=O)(=O)c1ccc(OC)c(Nc2ncc(-c3cccc(OC)c3)o2)c1	%	4.04

---

# inhibition per entry
- System under test: Non-receptor tyrosine-protein kinase TYK2 (Homo sapiens);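 note: values are mean percent inhibition of TYK2 kinase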
- Condition summary: at 1 µM
Property name: inhibition (%)

Compound	Measured result
ON=C1CCc2cc(-c3nc(C4CCNCC4)[nH]c3-c3ccncc3)ccc21	-0.2
COC(=O)c1ccc2c(c1)C(=Cc1cc(Br)c(O)c(Br)c1)C(=O)N2	51.5
CCS(=O)(=O)c1ccc(OC)c(Nc2ncc(-c3cccc(OC)c3)o2)c1	-4.34
O=C1Nc2ccc(-c3cccnc3)cc2C1=Cc1cc(Br)c(O)c(Br)c1	6.13
CN(c1ccc(NC(=O)Nc2ccc(OC(F)(F)F)cc2)cc1)c1ccnc(Nc2cccc(S(N)(=O)=O)c2)n1	-2.45
c1ccc(Nc2ncc(-c3ccccc3)o2)cc1	-4.84
CCOc1nccc2c1nc(-c1nonc1N)n2CC	1.21
Cc1cc(O)cc(C)c1/C=C/c1cncc(C(=O)N(C)C)c1	-2.56
COc1ccc2ncnc(Nc3ccc(OCc4ccccc4)cc3)c2c1	-1
Cc1cc(Cl)cc2c1NC(=O)C2=NNc1ccc(S(N)(=O)=O)cc1	0.66
c1ccc(Cc2nc3ccc(Nc4ncnc5ccccc45)cc3[nH]2)cc1	-0.14

---

- System under test: Tyrosine-protein kinase ITK/TSK (Homo sapiens) (UniProt Q08881);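 note: values are mean percent inhibition of ITK from the GSK PKIS screen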
- Sequence (Q08881 whole entry): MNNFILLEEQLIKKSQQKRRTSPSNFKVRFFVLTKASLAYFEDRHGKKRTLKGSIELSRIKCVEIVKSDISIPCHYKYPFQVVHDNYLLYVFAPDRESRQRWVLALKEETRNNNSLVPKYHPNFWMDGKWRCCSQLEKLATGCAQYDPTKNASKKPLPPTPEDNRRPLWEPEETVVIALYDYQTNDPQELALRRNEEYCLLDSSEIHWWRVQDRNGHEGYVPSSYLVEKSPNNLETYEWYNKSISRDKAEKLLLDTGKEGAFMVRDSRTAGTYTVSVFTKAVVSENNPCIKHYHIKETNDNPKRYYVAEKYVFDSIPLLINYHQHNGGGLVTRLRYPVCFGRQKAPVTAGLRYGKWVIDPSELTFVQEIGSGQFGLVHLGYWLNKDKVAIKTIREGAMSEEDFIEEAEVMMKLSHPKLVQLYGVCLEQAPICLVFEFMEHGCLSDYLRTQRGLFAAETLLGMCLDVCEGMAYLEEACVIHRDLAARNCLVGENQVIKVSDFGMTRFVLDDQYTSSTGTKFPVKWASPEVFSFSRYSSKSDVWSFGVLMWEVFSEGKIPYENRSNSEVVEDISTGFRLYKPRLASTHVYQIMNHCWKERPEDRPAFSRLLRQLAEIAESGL
- Condition summary: at 1 µM
// inhibition lookup, one value per entry

Compound	inhibition / %
Cc1nc(-c2ccccc2)n2nc(NCCCN3CCOCC3)ncc12	1.89
O=C(Nc1ccc(Oc2ccc3[nH]c(NC(=O)c4ccco4)nc3c2)cc1)Nc1cc(C(F)(F)F)ccc1F	0.22
Nc1ccc(C#Cc2cncnc2Nc2ccc(OCc3cccc(F)c3)c(Cl)c2)cc1	1.02
NS(=O)(=O)c1ccc(Nc2cc(-c3cccc(O)c3)n[nH]2)cc1	4.07
Cc1ccc2c(c1)/C(=N/Nc1ccc(S(N)(=O)=O)cc1)C(=O)N2	1.38
NS(=O)(=O)c1ccc(-c2cc3ccncc3cc2OCc2ccccc2)cc1	0.35
CS(=O)(=O)Nc1cccc(-c2ccc3c(NC(=O)C4CC4)n[nH]c3c2)c1	1.71
Cc1cc(Cl)cc2c1NC(=O)C2=NNc1ccc(S(N)(=O)=O)cc1	1.14
CS(=O)(=O)CCNCc1nc(-c2ccc3ncnc(Nc4ccc(OCc5cccc(C(F)(F)F)c5)cc4)c3c2)cs1	2.53
COC(=O)Nc1nc2cc(Oc3ccc(NC(=O)Nc4cccc(Br)c4)cc3)ccc2[nH]1	1.87
CCS(=O)(=O)c1ccc(OC)c(Nc2nccc(N(C)c3ccc4c(C)n[nH]c4c3)n2)c1	1.96
CCCN1CCCC(c2ccc(Nc3nc(Nc4cc(F)ccc4C(N)=O)c4cc[nH]c4n3)c(OC)c2)C1 (centres undefined)	6
COc1ccc2ncnc(Nc3ccc(OCc4ccccc4)cc3)c2c1	1.7
N#Cc1cccc(Nc2nccc(-c3cnn4ncccc34)n2)c1	21.1
COc1cc2ncnc(Nc3ccc(C)c(O)c3)c2cc1OC	1.28
O=S(=O)(CCOCc1ccc(-c2ccc3ncnc(Nc4ccc(OCc5cccc(F)c5)c(Cl)c4)c3c2)o1)c1ccccc1	1
COc1cc(Nc2nccc(-c3cnn4ncccc34)n2)cc(OC)c1	11.8
COc1cccc(-n2ncc3c(N/N=C/c4ccc(C)cc4)ncnc32)c1	3.5
NS(=O)(=O)c1ccc(N/N=C2\C(=O)Nc3ccc(Cl)cc32)cc1	4.1
CN(c1ccc(NC(=O)Nc2ccc(OC(F)(F)F)cc2)cc1)c1ccnc(Nc2cccc(S(N)(=O)=O)c2)n1	67.3
Cc1ccc(Nc2ccnc(Nc3cccc(C(N)=O)c3)n2)cc1O	0.3
COc1cc2ncn(-c3cc(OCc4ccccc4S(C)(=O)=O)c(C#N)s3)c2cc1OC	11.5
Cc1ccc(C(=O)NC2CC2)cc1-c1ccc2[nH]ncc2c1	-0.97
Cc1cc(-c2ccccn2)cc(C)c1/C=C/c1cncc(-c2nn[nH]n2)c1	0.66
COc1cc2ncnc(Nc3ccc4c(cnn4Cc4ccccc4)c3)c2cc1OC	1.9
NC(=O)c1cccc(Nc2nccc(Nc3cccc(F)c3)n2)c1	2.4
CC(C)c1ccc2c(c1)NC(=O)/C2=N/Nc1ccc(S(N)(=O)=O)cc1	2.46
CCn1c(-c2nonc2N)nc2ccc(F)cc21	1.52
[O-][S+]1CCN(Cc2ccc(-c3ccc4ncnc(Nc5ccc(OCc6ccccc6)c(Cl)c5)c4c3)o2)CC1	1.13

---

- System under test: Serine/threonine-protein kinase BRSK2 (Homo sapiens) (UniProt Q8IWQ3);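 note: mean kinase inhibition reported within the GSK PKIS dataset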
- Sequence (whole entry): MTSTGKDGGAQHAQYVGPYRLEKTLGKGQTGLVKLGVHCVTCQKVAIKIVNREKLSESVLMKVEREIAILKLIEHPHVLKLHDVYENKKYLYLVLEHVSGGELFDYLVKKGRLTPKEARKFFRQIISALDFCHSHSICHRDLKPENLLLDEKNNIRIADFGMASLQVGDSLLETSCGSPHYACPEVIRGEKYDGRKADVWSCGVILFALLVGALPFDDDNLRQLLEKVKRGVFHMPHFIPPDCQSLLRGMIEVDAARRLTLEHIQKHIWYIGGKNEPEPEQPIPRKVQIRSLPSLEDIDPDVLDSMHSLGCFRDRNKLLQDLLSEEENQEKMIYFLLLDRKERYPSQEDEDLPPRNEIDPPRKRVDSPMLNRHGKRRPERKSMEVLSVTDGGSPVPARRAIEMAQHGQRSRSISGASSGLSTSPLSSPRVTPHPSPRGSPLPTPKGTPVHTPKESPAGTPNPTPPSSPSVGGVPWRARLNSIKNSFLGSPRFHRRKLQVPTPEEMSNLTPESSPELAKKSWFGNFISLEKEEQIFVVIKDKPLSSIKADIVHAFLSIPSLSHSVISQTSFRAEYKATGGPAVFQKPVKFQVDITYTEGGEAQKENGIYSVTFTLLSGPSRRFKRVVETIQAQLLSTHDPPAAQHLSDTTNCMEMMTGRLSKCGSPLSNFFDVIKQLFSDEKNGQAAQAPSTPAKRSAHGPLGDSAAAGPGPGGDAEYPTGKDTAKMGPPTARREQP
- Condition summary: at 1 µM
Here, each record is paired with measured inhibition data.

Compound	Units text	inhibition
COc1ccc(-c2nn3ncccc3c2-c2ccnc(Nc3cccc(C(F)(F)F)c3)n2)cc1	%	2.85
CC(C)c1ccc2c(c1)NC(=O)/C2=N/Nc1ccc(S(N)(=O)=O)cc1	%	7.2
COc1cc(Nc2nccc(-c3cnn4ncccc34)n2)cc(OC)c1	%	6.76
CC(C)c1ccc(Nc2nccc(-c3cnn4ncccc34)n2)cc1	%	4.11
Cc1cc(O)cc(C)c1/C=C/c1cncc(C(=O)N(C)C)c1	%	6.07
COc1cccc(-n2nc(C)c3c(N/N=C(\C)c4ccncc4)ncnc32)c1	%	0.93
NC(=O)c1sc(-n2cnc3ccccc32)cc1OCc1ccccc1Br	%	17.1
Cc1cc(-c2ccccn2)cc(C)c1/C=C/c1cncc(-c2nn[nH]n2)c1	%	3.37
CN(C)c1cc2c(Nc3ccc4c(cnn4Cc4ccccc4)c3)ncnc2cn1	%	9.3
NC(=O)c1cccc(Nc2nccc(Nc3cccc(F)c3)n2)c1	%	8.9
CCn1c(-c2nonc2N)nc2ccc(F)cc21	%	5.06
COC(=O)c1ccc2c(c1)C(=Cc1cc(Br)c(O)c(Br)c1)C(=O)N2	%	5.14
CN(C)CCCn1c(-c2nonc2N)nc2cnccc21	%	1.19
COc1cc2ncn(-c3cc(OCc4ccccc4S(C)(=O)=O)c(C#N)s3)c2cc1OC	%	82.2
C[C@@H](Oc1cc(-n2cnc3ccc(OC[C@@H](O)CO)cc32)sc1C(N)=O)c1ccccc1Cl	%	68.3
[O-][S+]1CCN(Cc2ccc(-c3ccc4ncnc(Nc5ccc(OCc6ccccc6)c(Cl)c5)c4c3)o2)CC1	%	2.79

---

- System under test: Interleukin-1 receptor-associated kinase 4 (Homo sapiens);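 note: reported figure is the mean inhibition of IRAK4 activity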
- Condition summary: at 0.1 µM
In this section, each of the molecules is paired with its reported inhibition.

Compound	inhibition
CN(C)C(=O)O[C@@H]1CN[C@@H](C#Cc2cc3ncnc(Nc4ccc(OCc5cccc(F)c5)c(Cl)c4)c3s2)C1	2.83%
COc1cc2ncnc(Nc3ccc4c(cnn4Cc4ccccc4)c3)c2cc1OC	0.58%
COc1cccc(-n2ncc3c(N/N=C/c4ccc(S(C)(=O)=O)cc4)ncnc32)c1	-3.29%
[O-][S+]1CCN(Cc2ccc(-c3ccc4ncnc(Nc5ccc(OCc6ccccc6)c(Cl)c5)c4c3)o2)CC1	0.32%
C[C@@H](Oc1cc(-n2cnc3ccc(OC[C@@H](O)CO)cc32)sc1C(N)=O)c1ccccc1Cl	1.29%
Cc1nc(-c2ccccc2)n2nc(NCCCN3CCOCC3)ncc12	1.72%
COC(=O)c1cncc(/C=C/c2c(C)cc(O)cc2C)c1	-4.61%
CCn1c(-c2nonc2N)nc2c(C#CC(C)(C)O)nc(OCCNC)cc21	2.16%
COC(=O)c1ccc2c(c1)C(=Cc1cc(Br)c(O)c(Br)c1)C(=O)N2	1.11%
CN(C)C(=O)O[C@H]1CN[C@H](C#Cc2cc3ncnc(Nc4ccc(OCc5cccc(F)c5)c(Cl)c4)c3s2)C1	-3.18%
CN(C)c1cc2c(Nc3ccc4c(cnn4Cc4ccccc4)c3)ncnc2cn1	3.11%
OCc1ccc(-c2nc(-c3ccccn3)c(-c3ccc4c(c3)OCO4)[nH]2)cc1	-4.02%
CC(C)c1ccc(Nc2nccc(-c3cnn4ncccc34)n2)cc1	-2.06%
c1ccc(Nc2ncc(-c3ccccc3)o2)cc1	2.02%
c1ccc(Cc2nc3ccc(Nc4ncnc5ccccc45)cc3[nH]2)cc1	-1.86%
COc1cc(/C=N/Nc2ncnc3c2cnn3C(C)C)ccc1O	1.12%
Cc1cc(-c2ccccn2)cc(C)c1/C=C/c1cncc(-c2nn[nH]n2)c1	1.97%
Nc1nccc(-c2c(-c3ccc(F)cc3)ncn2CCCN2CCOCC2)n1	3.35%
Cc1cc(Cl)cc2c1NC(=O)C2=NNc1ccc(S(N)(=O)=O)cc1	3.1%
